Can you tell me folding stability dG for the items I'm about to list?
B1: r16_88_TrROS_Hall (parent)
chain: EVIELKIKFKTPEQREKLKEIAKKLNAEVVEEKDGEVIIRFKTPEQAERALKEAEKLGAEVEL

variants of: B1; assay: folding stability dG (cDNA display proteolysis); higher = more stable; conditions: PBS, room temperature
Numbers only, in kcal/mol.

- mutation_annotation: "V30W"
  folding stability dG / kcal/mol: 4.39

Hey, can you go through the list below and give me folding stability dG for every item?
1. T11Y
2. A47M
3. D34R
4. G58K

Reply text:
[4.02, 4.39, 4.23, 4.25]

Hey, can you go through the list below and give me folding stability dG for every item?
1. R49H
2. E55G
3. K33I
4. L18F

Reply text:
[4.4, 4.22, 4.27, 4.29]

Hey, can you go through the list below and give me folding stability dG for every item?
1. V37L
2. E16A

Reply text:
1. 4.39
2. 4.32

Hey, can you go through the list below and give me folding stability dG for every item?
1. T11N
2. K24F
3. A50K

Reply text:
4.26
4.67
2.55

Hey, can you go through the list below and give me folding stability dG for every item?
1. K10V
2. K23H
3. A22N
4. A50H
5. K19M
6. K24Y
7. V61K

Reply text:
1. 4.2
2. 4.28
3. 4.12
4. 3.68
5. 4.42
6. 4.84
7. 3.84

Hey, can you go through the list below and give me folding stability dG for every item?
1. L18C
2. R15H
3. Q14K
4. E53I
5. Q46K
6. P44T
7. K24V

Reply text:
[4.11, 4.27, 4.09, 4.27, 4.21, 4.46, 4.61]

Hey, can you go through the list below and give me folding stability dG for every item?
1. E36F
2. K17T
3. Q14R
4. K52V
5. E32G
6. L25E
7. K52D

Reply text:
1: 4.66; 2: 4.2; 3: 4.42; 4: 4.2; 5: 4.46; 6: 4.25; 7: 4.25

Hey, can you go through the list below and give me folding stability dG for every item?
1. K17I
2. I38R
3. K6N
4. E45A

Reply text:
1. 4.18
2. 4.28
3. 4.39
4. 4.33
